Molecular target: T1, human alpha CGRP (SEQ ID NO: 80) (human, not fully specified)
T1 construct: also called human αCGRP; hαCGRP
T1 peptide: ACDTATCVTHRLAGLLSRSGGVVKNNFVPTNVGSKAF
Assay: SPR as in Example 5
Define the label as Met when Kd is strictly less than 0.04 nM and as Not met in all remaining cases.

Request: Please let me know if cysteine-free lipocalin mutein SEQ ID NO: 33 (designed binder, biotinylated by NHS chemistry for capture in SPR) QDSTSDLIPAPPLSKVPLQQNFQDNQFQGKWYVVGWAGNTLLREDKDPIKMQAMIYELKEDKSYNVTWVYFADKKLNYHIETFVPGSQPGEFTLGTIKSYPGETPILVRVVSTNYNQHAMVFFKGVNQNREIFEIVLYGRTKELTNELKENFIRFSKSLGLPENHIVFPVPIDQWIDGSAWSHPQFEK shows Kd below 0.04 nM.
Result: Met

Request: Please let me know if cysteine-free lipocalin mutein SEQ ID NO: 30 (designed binder, biotinylated by NHS chemistry for capture in SPR) QDSTSDLIPAPPLSKVPLQQNFQDNQFQGKWYVVGRAGNDVLREDKDPEKMEATIYELKEDKSYNVTDVGFVQKRYMYVTHTFVPGSQPGEFTLGNIESYPGVTSALVRVVSTDYNQHAMVFVKLVKQNRELFEITLYGRTKELTSELKENFIRFSKSLGLPENHIVFPVPIDQIDGSAWSHPQFEK shows Kd below 0.04 nM.
Result: Not met

Request: Please let me know if cysteine-free lipocalin mutein SEQ ID NO: 40 (designed binder, biotinylated by NHS chemistry for capture in SPR) QDSTSDLIPAPPLSKVPLQQNFQDNQFQGKWYVVGWAGNTLLREDKDPIKMQAMIYELKEDKSYNVTWVYFADKKFNYHIETFVPGSQPGEFTLGTIKSYPGETPILVRVVSTNYNQHAMVFFKGVNQNREIFEIVLYGRTKELTNELKENFIRFSKSLGLPENHIVFPVPIDQDIDGSAWSHPQFEK shows Kd below 0.04 nM.
Result: Not met

Request: Please let me know if cysteine-free lipocalin mutein SEQ ID NO: 38 (designed binder, biotinylated by NHS chemistry for capture in SPR) QDSTSDLIPAPPLSKVPLQQNFQDNQFQGKWYVVGWAGNTLLREDKDPIKMQAMIYELKEDKSYNVTWVYFADKKRNYHIETFVPGSQPGEFTLGTIKSYPGETPILVRVVSTNYNQHAMVFFKGVNQNREIFEIVLYGRTKELTNELKENFIRFSKSLGLPENHIVFPVPIDQVIDGSAWSHPQFEK shows Kd below 0.04 nM.
Result: Not met

Request: Please let me know if cysteine-free lipocalin mutein SEQ ID NO: 31 (designed binder, biotinylated by NHS chemistry for capture in SPR) QDSTSDLIPAPPLSKVPLQQNFQDNQFQGKWYVVGWAGNTLLREDKDPIKMQAMIYELKEDKSYNVTWVYFADKKRNYHIETFVPGSQPGEFTLGTIKSYPGETPILVRVVSTNYNQHAMVFFKGVNQNREIFEIVLYGRTKELTNELKENFIRFSKSLGLPENHIVFPVPIDQFIDGSAWSHPQFEK shows Kd below 0.04 nM.
Result: Met
